# PROCEDURE_TEXT: physchem
# Assay type: physicochemical
Marks after values point to notes of the source that are not given here.
VALUE_KIND: LogP

Data point: O=C(NCC(F)c1ccc(Cl)cc1Cl)c1cc(Cl)ncc1Oc1cccc(C2CC2)c1F (racemic) [Compound I-060] ; LogP = 5.17^[a]

Looking up CON=C(C)c1cc(C(=O)NCCc2ccc(C)cc2C)c(Oc2cccc(C(F)(F)F)c2)cn1 (mixture of isomers) [Compound I-251] , I found its LogP recorded as 5.36^[a]

For this compound ( Cc1ccc(C(F)(F)CNC(=O)c2cc(C)ncc2Oc2cccc(Cl)c2)c(Cl)c1 [Compound I-067] ), measured LogP is 4.06^[a]

The reported LogP of the compound C#Cc1ccc(C(F)(F)CNC(=O)c2cc(Cl)ncc2Oc2cccc(C(F)F)c2)c(Cl)c1 [Compound I-143] was 4.32^[a]

Reported LogP of Cc1ccc(CCNC(=O)c2cc(Cl)ncc2Oc2cccc(-c3ccccc3)c2)c(C)c1 [Compound I-151] : 5.44^[a]

Cc1ccc(CCNC(=O)c2cc(Cl)ncc2Oc2cccc(C3COC3)c2)c(C)c1 [Compound I-139] yielded LogP of 3.88^[a]

Field LogP (entry C=Cc1ccc(C(F)(F)CNC(=O)c2cc(Cl)ncc2Oc2cccc(C(F)F)c2)c(Cl)c1 [Compound I-123] ) reads 4.47^[a]
